Source listed as PubChem BioAssay.

# assayProtocol: cell viability in Huh7 cells, primary screen, cytotoxicity control for HCV replication inhibitor project, CellTiter-Glo luminescence, basal, 48 h (AID 1143);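 also: Huh7 hepatoma cells carrying a hepatitis C replication reporter with no stimulus; test concentration not given here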
# experimentalContext: Huh7 HCV replicon, higher = more signal, called active from +8 up or from −8 down
measure: z-score
Please reply with the value in numeric form only.

Record excerpt, results attached:
1) NC(=O)NCC#Cc1ccc2c(c1)[C@]1(C(=O)N2)[C@H](C(=O)N2CCCCCCC2)[C@H]2C(=O)O[C@H](c3ccccc3)[C@H](c3ccccc3)N2[C@@H]1c1ccc(OCCO)cc1 :: -0.416
2) C=C[C@@H](COC(C)=O)N(Cc1ccccc1[N+](=O)[O-])S(=O)(=O)c1ccc(Br)cc1 :: -4.76

Which z-score reading was recorded for the compound `[N-]=[N+]=Nc1ccccc1[C@H]1OC(c2ccc(OCCCO)cc2)=N[C@@]1(CCS(=O)(=O)c1ccccc1)C(=O)O` ?
-1.06

Which z-score reading was recorded for the compound `CC(C)CNC(=O)[C@@H]1c2ccccc2C(=O)N(Cc2cc(C(F)(F)F)cc(C(F)(F)F)c2)[C@H]1c1ccc(CO)cc1` ?
-1.51

Which z-score reading was recorded for the compound `O=c1cccc(C=Cc2ccccc2)o1` ?
-0.273

Which z-score reading was recorded for the compound O=C1C2C=CC(C(O)c3cccs3)N(Nc3ccccc3F)C2C(=O)N1c1ccccc1 (stereo unspecified) ?
-1.1

Which z-score reading was recorded for the compound `Cc1ccc([C@H]2[C@H](C(=O)O)[C@H](Sc3ccccc3)[C@@H](C(C)C)N2S(=O)(=O)c2ccc(C)cc2)cc1` ?
-2.04
